Where these numbers come from: the supplement of paper PMC4466140

# Target of assay: AgCyk3
# Test method notes: SPOT peptide array binding signal intensity (averaged, normalized) (arbitrary units (background-subtracted, floor 0; scale differs between SH3 domains)); higher = stronger binding of the SH3 domain to the peptide
Catalogue of SPOT peptide array binding signal intensity values
Reply with the value as a number alone.

Completed entries (count: 3):
Given LYEAMPPTLPHRDWK , state its recorded SPOT peptide array binding signal intensity.
2

Next entry: RSKRLFPVRPMATAH
3

What would you report for ALRRRLPVTRSKINW ?
9.5

***
Can you share its SPOT peptide array binding signal intensity? I mean this binder: HVRRSILALPLGVLL
1

Please give the result for RRGPAPPPPPRASRP too.
2

Another binder to check: GAGERPRLVPRPINV
6

Further, for QQNRPLPQLPNRNNR ?
102

Follow-up entry: ITHRLRISIPGITGR
10

Ok, now RRTRLRPPTPLSQLL
1.5

One more binder: QRIRKIPGIPLMSVG
1

Please do the same for FYNRTAFQLPGDARV as well.
2

# iterate: RPVPPPPPMRTTTEG
14
